The values you see were collected from patent US5374601A.

# System: Salmonella TA1538 and TA98
# assay_explanation: Ames test (preincubation method, metabolically activated, +x9mix)
# measurement_context: 0 to 5 mg, judged against solvent control
assay_readout: Toxicity (mutagenicity)

chem_smiles	result_value
CCN(CC)c1ccc(N=Nc2cn(-c3ccccc3)nc2C)cn1	neg- ative
CCN(CC)c1ccc(N=C2C=C(NC(C)=O)C(=O)C(Cl)=C2C)cn1	neg- ative
CCN(CC)c1ccc(N=C2C=C(NC(C)=O)C(=O)C(Cl)=C2C)cc1	neg- ative
